- Tested on: NCI-H460 lung
- Test protocol: NCI tumour cell line growth inhibition, 48 h
Where a SMILES comes first, the peptide text is derived from it. The star is where a group is joined. Boc = CC(C)(C)OC(=O)*; OBn = c1ccc(CO*)cc1
Would you kindly list TGI for each of these compounds?

Request: Retrieve TGI measured for CO[C@]12CCC(=O)N1C=Cc1c2[nH]c2ccccc12 and print it.
Response: > 100 µM

Request: Retrieve TGI measured for CC(C)C(NC(=O)CNC(=O)C1CCCN1C(=O)C(NC(=O)OC(C)(C)C)C(C)C)C(=O)NCC(=O)OCc1ccccc1 (centres undefined) (Boc-VPGVG-OBn; configuration not given here) and print it.
Response: > 100 µM

Request: Retrieve TGI measured for CC(=O)NC(CCCOC(C)=O)C(=O)NC(CCCOC(C)=O)C(=O)NC(CCCOC(C)=O)C(=O)NC(Cc1ccc([N+](=O)[O-])cc1)C(=O)NCC(=O)OCc1ccccc1 (centres undefined) and print it.
Response: > 100 µM

Request: Retrieve TGI measured for C[N+]1(CCCC[N+]2(C)CCCCCCC2)CCCCCCC1 and print it.
Response: > 100 µM

Request: Retrieve TGI measured for CCC[CH2][Ge]([CH2]CCC)([CH2]CCC)[O]C(=O)C(OC(C)=O)c1ccccc1 (centres undefined) and print it.
Response: 20 µM

Request: Retrieve TGI measured for Cc1cc(O)c(O)c(Oc2cc(C)cc(O)c2O)c1 and print it.
Response: 26.6 µM

Request: Retrieve TGI measured for CC1=C(c2ccc(C)cc2)NC(=S)C(C)C(c2ccc(C)cc2)=N1 (centres undefined) and print it.
Response: > 100 µM

Request: Retrieve TGI measured for CCCCCCCCCCCCCC(=O)OC1C(CO)OC(=O)C1O (centres undefined) and print it.
Response: > 100 µM

Request: Retrieve TGI measured for COc1ccc(OC)c(-c2cc(C(=O)O)c3cc4ccccc4cc3n2)c1 and print it.
Response: > 100 µM

====

- System: T-47D breast
- Test protocol: NCI tumour cell line growth inhibition, 48 h
Would you kindly list GI50 for each of these compounds?

Request: Answer briefly: GI50 recorded on T-47D breast for Cc1[nH]c2ccccc2c1C1=CC(=O)C=CC1=O
Response: 2.65 µM

Request: Answer briefly: GI50 recorded on T-47D breast for C(=C\c1nc2ccccc2s1)/c1ccc(N2CCOCC2)s1
Response: 71 µM

Request: Answer briefly: GI50 recorded on T-47D breast for CS(=O)(=O)c1ccc(-c2[nH]c3ccc(F)cc3c2/C=N/NC(N)=S)cc1
Response: 12.3 µM

Request: Answer briefly: GI50 recorded on T-47D breast for O=C(O)CP(=O)(c1ccccc1)c1ccccc1.O=C(O)CP(=O)(c1ccccc1)c1ccccc1.[Cd]
Response: 24 µM

Request: Answer briefly: GI50 recorded on T-47D breast for CCNC(=O)c1ccc2c(c1)nc(-c1ccc(Cl)cc1)n2-c1cc(C(C)(C)C)[nH]n1
Response: 3.99 µM

Request: Answer briefly: GI50 recorded on T-47D breast for CN1CCN(CCCOc2ccc3nc(Nc4ccc(C(F)(F)F)c(Cl)c4)ccc3c2)CC1
Response: 1.62 µM

Request: Answer briefly: GI50 recorded on T-47D breast for CN1CCN(CCCN2c3ccccc3Sc3ccc(C(F)(F)F)cc32)CC1
Response: 1.6 µM

Request: Answer briefly: GI50 recorded on T-47D breast for O=C(c1ccncc1)N1CCN(C2=NS(=O)(=O)c3ccccc3N2c2ccccc2)CC1
Response: 10.9 µM

Request: Answer briefly: GI50 recorded on T-47D breast for O=C(Nc1ccc(O)c(NS(=O)(=O)c2ccc(F)cc2)c1)c1ccc(-c2ccccc2)cc1
Response: 3.07 µM

Request: Answer briefly: GI50 recorded on T-47D breast for CCCN(CCC)c1ccc(/C=N/NC(=O)c2cccnc2)cc1
Response: 28.1 µM

Request: Answer briefly: GI50 recorded on T-47D breast for CNC(=O)c1c(NC(=O)c2ccc(C(C)C)cc2)sc2c1CCC(=O)C2
Response: 0.341 µM

Request: Answer briefly: GI50 recorded on T-47D breast for CC(=O)Nc1ccc(S(=O)(=O)c2ccc(NC(C)=O)cc2)cc1
Response: > 100 µM

====

- Tested on: MCF7 breast
- Test protocol: NCI tumour cell line growth inhibition, 48 h
Would you kindly list TGI for each of these molecules?

Request: Retrieve TGI measured for Cc1cccc2c1NC(=O)C2(c1ccc(O)cc1)c1ccc(O)cc1 and print it.
Response: > 59.6 µM

Request: Retrieve TGI measured for COCO[C@@H]1CC2C=Nc3cc(OCc4ccccc4)c(OC)cc3C(=O)N2C1 (stereo not given in full) and print it.
Response: > 35.4 µM

Request: Retrieve TGI measured for COc1cc(/C=N/Nc2ncnc3c2cnn3Cc2ccccc2)ccc1O and print it.
Response: > 25 µM

Request: Retrieve TGI measured for O=C(/C=C/c1ccc(O)cc1)c1cc(O)cc(O)c1 and print it.
Response: 12.3 µM

Request: Retrieve TGI measured for COc1ccc(N2C(=O)C3c4[nH]c5cc(Cl)ccc5c4C4CCC(C(C)(C)C)CC4C3C2=O)cc1 (stereo not given) and print it.
Response: > 100 µM

====

- System: NCI-H23 lung
- Test protocol: NCI tumour cell line growth inhibition, 48 h; in the data active means GI50 below about 0.43 µM; inactive means the rest
Use one of these outcomes when replying: yes (1) (active), no (0) (inactive)

Request: For this compound, state the assay outcome: OCCN1CCN(c2nc(Nc3ccc(-c4nc5ccccc5[nH]4)cc3)c3cn[nH]c3n2)CC1
Response: no (0)

Request: For this compound, state the assay outcome: O=C(Nc1cccc(-n2cc(-c3ccncc3)c(-c3ccc(O)c(Cl)c3)n2)c1)c1ccc(N2CCOCC2)c(C(F)(F)F)c1
Response: no (0)

Request: For this compound, state the assay outcome: CNc1ccc(C(=O)CC(O)CCC(C)C2OC(=O)CC(O)CC(=O)CC(O)CC(O)CC(O)CC(O)CC3(O)CC(O)C(C(=O)NCCc4ccccn4)C(CC(OC4OC(C)C(O)C(N)C4O)/C=C/C=C/C=C/C=C\C=C/C=C/C=C/C2C)O3)cc1 (configuration not stated)
Response: yes (1)

Request: For this compound, state the assay outcome: O=C(OC(CNc1c(C(=O)c2ccccc2)c(=O)n(Cc2ccccc2)c(=O)n1Cc1ccccc1)CN1CCCCC1)c1ccccc1 (configuration not stated)
Response: no (0)

Request: For this compound, state the assay outcome: COc1ccc(C(=O)c2cc(OC)c(OC)c(OC)c2)cc1/C=C/C(=O)c1ccc2c(c1)OCO2
Response: no (0)

Request: For this compound, state the assay outcome: CCc1cccc(CC)c1NC(=O)c1ccn2c1CCc1cnc(Nc3ccc(N4CCN(C)CC4)cc3OC)nc1-2
Response: no (0)

Request: For this compound, state the assay outcome: CC#CC(=O)N[C@H]1CCCN(c2c(F)cc(C(N)=O)c3[nH]c(C)c(C)c23)C1
Response: no (0)

====

- Test system: HCC-2998 colon
- Test protocol: NCI tumour cell line growth inhibition, 48 h
Would you kindly list GI50 for each of these compounds?

Request: Retrieve GI50 measured for Cc1[nH]c2ccccc2c1C1=CC(=O)C=CC1=O and print it.
Response: 15.7 µM

Request: Retrieve GI50 measured for CC(=O)Nc1ccc(S(=O)(=O)c2ccc(NC(C)=O)cc2)cc1 and print it.
Response: > 100 µM

Request: Retrieve GI50 measured for COC(=O)c1cc(NC(=O)CN(CCN(CC(=O)O)CC(=O)Nc2ccc(O)c(C(=O)OC)c2)CC(=O)O)ccc1O and print it.
Response: 97.4 µM

Request: Retrieve GI50 measured for CCc1cccc(CC)c1NC(=O)c1ccn2c1CCc1cnc(Nc3ccc(N4CCN(C)CC4)cc3OC)nc1-2 and print it.
Response: 2.28 µM

Request: Retrieve GI50 measured for COc1ccc2c([nH]c3cc(O)c(C)cc32)c1CC=C(C)C and print it.
Response: 5.49 µM

====

- Test system: HCT-15 colon
- Test protocol: NCI tumour cell line growth inhibition, 48 h
Reported endpoint: TGI

Request: Answer briefly: TGI recorded on HCT-15 colon for C[C@]12CC/C(=N\OC(=O)Nc3ccccc3)C=C1CC[C@@H]1C2CC[C@@]2(C)C1CC[C@@H]2OC(=O)Nc1ccccc1 (stereo partly drawn)
Response: 14.2 µM

Request: Answer briefly: TGI recorded on HCT-15 colon for O=C1c2ccccc2-n2c1nc1cc(Cl)ccc1c2=O
Response: > 100 µM

Request: Answer briefly: TGI recorded on HCT-15 colon for O=c1[nH]cnc2c1ncn2C1SC(CO)C(O)C1O (stereo not drawn)
Response: > 100 µM

Request: Answer briefly: TGI recorded on HCT-15 colon for C[N+]1(CCCC[N+]2(C)CCCCCCC2)CCCCCCC1
Response: > 100 µM

Request: Answer briefly: TGI recorded on HCT-15 colon for O=C(CC(=O)c1cccc([N+](=O)[O-])c1)C(=O)Nc1nc([N+](=O)[O-])cs1
Response: > 100 µM

Request: Answer briefly: TGI recorded on HCT-15 colon for COC(=O)c1cc(NC(=O)CN(CCN(CC(=O)O)CC(=O)Nc2ccc(O)c(C(=O)OC)c2)CC(=O)O)ccc1O
Response: > 100 µM

Request: Answer briefly: TGI recorded on HCT-15 colon for CSC1CC2C(CC1(C)SC)C2(C)C (stereo not drawn)
Response: > 100 µM

Request: Answer briefly: TGI recorded on HCT-15 colon for CNC(=O)c1c(NC(=O)c2ccc(C(C)C)cc2)sc2c1CCC(=O)C2
Response: 1.47 µM

Request: Answer briefly: TGI recorded on HCT-15 colon for COc1ccc(N2C(=O)C3c4[nH]c5cc(Cl)ccc5c4C4CCC(C(C)(C)C)CC4C3C2=O)cc1 (stereo not drawn)
Response: > 100 µM

Request: Answer briefly: TGI recorded on HCT-15 colon for Cc1nn(-c2ccccc2)c(C)c1/C=N/N1CCN(Cc2ccccc2)CC1
Response: > 100 µM

Request: Answer briefly: TGI recorded on HCT-15 colon for COc1ccc(NC(=O)CC(=O)n2nc(-c3ccccc3)c(N=Nc3ccccc3C)c2-c2ccccc2)cc1
Response: > 61.3 µM

Request: Answer briefly: TGI recorded on HCT-15 colon for COc1cc2c(cc1O)-c1c(OC)c(O)cc3c1C(C2)N(C)CC3 (stereo not drawn)
Response: > 100 µM

Request: Answer briefly: TGI recorded on HCT-15 colon for COc1cccc(N2C(=O)[C@H]3[C@H]4CC(C(C)(C)C)CC[C@H]4c4c([nH]c5ccccc45)[C@H]3C2=O)c1 (stereo partly drawn)
Response: > 100 µM

Request: Answer briefly: TGI recorded on HCT-15 colon for CN(C)C(=O)C(F)(F)C(c1ccc(C(F)(F)F)cc1)C1C(=O)N(C)C(=O)N(C)C1=O (stereo not drawn)
Response: > 100 µM

Request: Answer briefly: TGI recorded on HCT-15 colon for COc1ccc(C(=O)C(CC2C(=O)CC(C)(C)C(C(=O)C(=O)Nc3c(C)cccc3C)C2=O)c2ccc(OC)cc2)cc1 (stereo not drawn)
Response: > 100 µM

Request: Answer briefly: TGI recorded on HCT-15 colon for COc1cc(/C=C2/C(=O)N=C(NC(C)=O)N2C)ccc1OC(C)=O
Response: > 100 µM

Request: Answer briefly: TGI recorded on HCT-15 colon for Cc1cccc2c1ccc1c3occ(C)c3c(=O)oc21
Response: > 100 µM

Request: Answer briefly: TGI recorded on HCT-15 colon for CC#CC(=O)N[C@H]1CCCN(c2c(F)cc(C(N)=O)c3[nH]c(C)c(C)c23)C1
Response: 32.9 µM

Request: Answer briefly: TGI recorded on HCT-15 colon for CCOC(=O)NC(C(C(=O)OCC)C(=O)OCC)(C(F)(F)F)C(F)(F)F
Response: > 100 µM

Request: Answer briefly: TGI recorded on HCT-15 colon for COc1ccc2c([nH]c3cc(O)c(C)cc32)c1CC=C(C)C
Response: > 25 µM

Request: Answer briefly: TGI recorded on HCT-15 colon for CC1=C(c2ccc(C)cc2)NC(=S)C(C)C(c2ccc(C)cc2)=N1 (stereo not drawn)
Response: > 100 µM

Request: Answer briefly: TGI recorded on HCT-15 colon for COCO[C@@H]1CC2C=Nc3cc(OCc4ccccc4)c(OC)cc3C(=O)N2C1 (stereo partly drawn)
Response: 6.56 µM

Request: Answer briefly: TGI recorded on HCT-15 colon for O=C(/C=C/c1ccc(O)cc1)c1cc(O)cc(O)c1
Response: 16.9 µM

Request: Answer briefly: TGI recorded on HCT-15 colon for O=C(/C=C/c1cccs1)c1ccc(Cl)s1
Response: 35.2 µM

Request: Answer briefly: TGI recorded on HCT-15 colon for O=C1C(Cl)=C(Nc2cccc(O)c2)C(=O)N1c1ccc(Cl)cc1Cl
Response: > 100 µM

Request: Answer briefly: TGI recorded on HCT-15 colon for COC(=O)C(CCSc1ccccc1)C(=O)OC
Response: > 100 µM

Request: Answer briefly: TGI recorded on HCT-15 colon for CCCCCCCCCCCCCCCCNc1ccc2c(c1)OCCOCCOCCOCCO2
Response: 13.5 µM

Request: Answer briefly: TGI recorded on HCT-15 colon for O=C(c1ccncc1)N1CCN(C2=NS(=O)(=O)c3ccccc3N2c2ccccc2)CC1
Response: > 100 µM
